- Tested on: 30S ribosomal subunit (Escherichia coli MRE600)
- assay overview: filter binding
- condition set: only 10% bound; Filter binding: 50 nM 32P-RNA in TAKM5 buffer (composition not given), 15 min at 37 C, nitrocellulose filtration; fluorescence titrations: pyrene, ex 341 nm …

- sequence code: "GCGCGGAUGCUCAGUCGGUAGAGCAGGGGAUUGAAAAUCCCCGUGUCCUUGGUUCGAUUCCGAGUCCGCGCACCA [tRNAPhe]"
  tested target: "30S ribosomal subunit (Escherichia coli MRE600)"
  display unit: "nM"
  Kd: 35

###

Each record here notes measured Kd.
- Test system: 70S ribosome (Escherichia coli MRE600)
- assay overview: filter binding
- condition set: Filter binding: 50 nM 32P-RNA in TAKM5 buffer (composition not given), 15 min at 37 C, nitrocellulose filtration; fluorescence titrations: pyrene, ex 341 nm …
measured attribute: Kd (nM)

- sequence code: "GAGCGGUUUCUGGAAUACUAUAUGUAAGUAUAGUGUUCUGGAGGCAUCAUUCUAUGGUUACCCAUCAUUAGAGGAAAUUUCCAAUAAACUCUGGUGUAAGGCUUAGAGUGAUGGUCGAGGUGCCCUAUUUAGGGUGAGGAGCCUCGGUGGCAGCCCCACCAAAUCCUCUAUUGGAUAGGAACAGCUGUACUGGGCAGUUACAGCAGUCGUAUGGUAACACAUGCGGCGUUCCGAAAUACCAUGGGUGGCGAUUCACAACAAGAA [IAPV IGR IRES PK1_K/O]"
  measured attribute: "Kd"
  value: 67
- sequence code: "GAGCGGUUUCUGGAAUACUAUAUGUAAGUAUAGUGUUCUGGAGGCAUCAUUCUAUGGUUACCCAUCAUUAGAGGAAAUUUCCAAUAAACUCUGGUGUAAGGCUUAGAGUGAUGGUCGAGGUGCCCUAUUUAGGGUGAGGAGCCUCGGUGGCAGCCCCUGGAAAUCCUCUAUUGGAUAGGAACAGCUGUACUGGGCAGUUACAGCAGUCGUAUGGUAACACAUGCGGCGUUCCGAAAUACCAUGCCUGGCGAUUCACAACAAGAA [IAPV IGR IRES PK3_K/O]"
  measured attribute: "Kd"
  value: 59
- sequence code: "GAGCGGUUUCUGGAAUACUAUAUGUAAGUAUAGUGUUCUGGAGGCAUCAUUCUAUGGUUACCCAUCAUUAGAGGAAAUUUCCAAUAAACUCUGGUGUAAGGCUUAGAGUGAUGGUCGAGGUGCCCUAUUUAGGGUGAGGAGCCUCGGUGGCAGCCCCACCAAAUCCUCUAUUGGAUAGGAACAGCUGUACUGGGCAGUUACAGCAGUCGUAUGGUAACACAUGCGGCGUUCCGAAAUACCAUGCCUGGCGAUUCACAACAAGAA [IAPV IGR IRES WT]"
  measured attribute: "Kd"
  value: 50

Data credit: paper PMC9458429
